System: HLA class I (e.g. HLA-A2) expressing adherent 293T cells
Assay: CTL assay on reverse transfected microarray (caspase activation, fluorescent Z-VAD)
Format: cell-based, human
Measurement setup: HLA-matched CD8+ T cells from prostate cancer patients incubated 4 hours on array; red fluorescent signal = positive response
Assay readout: Patient ID with positive hit

In: Given No. 13: DATAS fragment; ATPase, Class V, type 10A; exon extension (nucleic acid, listed as Homo sapiens) DNA: GGAGGAGGTCGGCATCACCAGTAACAGGAATCCCTCTCCCTTTGAAGGCAGTGATGGCCAGCGACTTTGCAGTGCCGAAATTCCGATACCTGGAGAGGCTCTTGATTCTTCACGGGCATTGGTGCTACTCCCGACTTGCCAACATGGTGCTGTACTTCTTCTACAAAAACACAATGTTCGTGGGCCTCCTGTTTTGGTTCCAGTTTTTCTGTGGCTTCTCTGCATCTACCATGATTGACCAGTGGTATCTAATCTTCTTTAATCTGCTCTTCTCGTCACCTCCAACGA , state its recorded Patient ID with positive hit.
Out: MSMPB
